Target: T1, secreted, soluble Kex2 (Saccharomyces cerevisiae, UniProt P13134 114-613, limits assumed)
T1 construct: Secreted, soluble construct; also called kexin
T1 sequence (looked up): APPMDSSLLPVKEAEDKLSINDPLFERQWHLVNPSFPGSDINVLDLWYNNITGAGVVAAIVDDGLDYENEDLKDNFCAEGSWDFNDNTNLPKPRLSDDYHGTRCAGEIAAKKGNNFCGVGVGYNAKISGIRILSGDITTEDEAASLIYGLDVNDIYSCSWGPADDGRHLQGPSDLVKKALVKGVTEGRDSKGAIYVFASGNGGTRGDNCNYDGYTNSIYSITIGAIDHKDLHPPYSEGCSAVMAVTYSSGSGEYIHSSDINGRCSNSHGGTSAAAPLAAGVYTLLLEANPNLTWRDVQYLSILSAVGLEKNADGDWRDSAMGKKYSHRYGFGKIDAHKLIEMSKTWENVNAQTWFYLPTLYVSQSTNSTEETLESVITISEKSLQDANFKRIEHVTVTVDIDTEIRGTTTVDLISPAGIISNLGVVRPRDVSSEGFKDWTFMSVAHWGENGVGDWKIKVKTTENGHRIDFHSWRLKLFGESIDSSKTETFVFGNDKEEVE
Experiment: enzyme inhibition, fluorogenic substrate; * temporary inhibition
Method: Affinities of eglin variants with secreted, soluble Kex2 (hereafter “Kex2”; Brenner, C. and Fuller, R. S. (1992) Proc. Natl. Acad. Sci. USA 89: 922-926) and secreted, soluble furin (hereafter, “furin”; Bravo, D. A. et al (1994) J. Biol. Chem. 269: 25830-25837; and Komiyama & Fuller (2000) Biochemistry 39: 15156-15165) were measured by incubating variants with the enzymes (˜0.5 to 2.0 nM) for 45 min to 1 h at 21° C. in one of two enzyme assay buffers. […]
endpoint: Ki (nM)
Answer in nM, number only, no unit symbol.

{"binder": "K2R1-eglin (designed binder, N-terminal Met removed) SMGSELKSFPEVVGKTVDQAREYFTLHYPQYDVYFLPEGSPVKRDLRYNRVRVFYNPGTNVVNHVPHVG", "Ki, nM": 0.67}

I have this binder here, M4K2R1-eglin (designed binder, N-terminal Met removed) SMGSELKSFPEVVGKTVDQAREYFTLHYPQYDVYFLPEGSMVKRDLRYNRVRVFYNPGTNVVNHVPHVG , and I need its recorded Ki.
0.59
